- targetOrTestSystem: Melanin-concentrating hormone receptor 1 (Homo sapiens, UniProt Q99705)
- Sequence (Q99705 whole entry): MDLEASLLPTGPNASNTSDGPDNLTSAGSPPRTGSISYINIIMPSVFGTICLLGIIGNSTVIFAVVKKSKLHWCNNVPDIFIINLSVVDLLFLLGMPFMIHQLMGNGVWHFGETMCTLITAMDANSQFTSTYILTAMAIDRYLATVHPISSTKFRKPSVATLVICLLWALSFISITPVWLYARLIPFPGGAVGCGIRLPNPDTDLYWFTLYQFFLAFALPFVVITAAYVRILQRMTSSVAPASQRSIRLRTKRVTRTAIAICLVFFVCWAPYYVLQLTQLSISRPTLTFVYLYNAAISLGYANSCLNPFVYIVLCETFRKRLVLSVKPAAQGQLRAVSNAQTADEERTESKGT
- methodDescription: Antagonist activity at MCH1 receptor
pKi: −log10 of the molar value.
valueType: pKi

Examples from the recorded data:
[[record]]
compound = "CC(C)N(CCN(C(=O)Nc1ccc(F)c(Cl)c1)C1CC[C@]2(c3cccc(CN4CC[C@H](O)C4)c3)CC2C1)C(C)C (some centres not stated)"
experimentalresult = 7.68

[[record]]
compound = "CC(C)N(CCN(C(=O)Nc1ccc(F)cc1)C1CC[C@]2(c3cccc(C#N)c3)CC2C1)C(C)C (some centres not stated)"
experimentalresult = 7.98

[[record]]
compound = "N#Cc1cccc([C@]23CCC(N(CCN4CC[C@@H](O)C4)C(=O)Nc4cccc([N+](=O)[O-])c4)CC2C3)c1 (some centres not stated)"
experimentalresult = 7.22


[a] N#Cc1cccc([C@]23CCC(N(CCN4CC[C@@H](O)C4)C(=O)Nc4cccc(Br)c4)CC2C3)c1 (some centres not stated)
[b] CC(C)N(CCN(C(=O)Nc1ccc(F)c(Cl)c1)C1CC[C@]2(c3cccc(CN(C)C)c3)CC2C1)C(C)C (some centres not stated)
// which entry has the larger pKi value, a or b ? Please respond with the label that marks your chosen entry. b

[P] CCO/N=C/c1cccc([C@]23CCC(N(CCN(C(C)C)C(C)C)C(=O)Nc4ccc(F)c(Cl)c4)CC2C3)c1 (some centres not stated)
[Q] CC(C)N(CCN(C(=O)Nc1ccc(F)c(Cl)c1)C1CC[C@]2(c3cccc(C#N)c3)CC2C1)C(C)C (some centres not stated)
Pick one: P or Q . Which one has the lower reported pKi? Give the label under which the chosen entry appears. P
(P: 7.54, Q: 8.30)

---

- targetOrTestSystem: Melanin-concentrating hormone receptor 1 (Homo sapiens, UniProt Q99705)
- methodDescription: Antagonist activity at MCH1 receptor
valueType: Ki (nM)

[I] CS(=O)(=O)N1CCCCC1CN(C(=O)Nc1ccc(F)c(Cl)c1)C1CC[C@]2(c3cccc(C#N)c3)CC2C1 (stereo partly drawn)
[II] CC(C)N(CCN(C(=O)Nc1ccc(F)c(Cl)c1)C1CC[C@]2(c3cccc(C#N)c3)CC2C1)[C@H](C)CO (stereo partly drawn)
Returns: the label, I or II , whose recorded Ki is the lower number. Record your answer as the label of the chosen record. II

[P] CC(C)N(CCN(C(=O)Nc1cccc(C#N)c1)C1CC[C@]2(c3cccc(C#N)c3)CC2C1)C(C)C (stereo partly drawn)
[Q] N#Cc1cccc([C@]23CCC(N(CCN4CCCC(O)C4)C(=O)Nc4ccc(F)c(Cl)c4)CC2C3)c1 (stereo partly drawn)
[R] CC(C)N(CCN(C(=O)Nc1ccc(F)c(Cl)c1)C1CC[C@]2(c3cccc(CN4CCN(C)CC4)c3)CC2C1)C(C)C (stereo partly drawn)
[S] CS(=O)(=O)N1CCC(CCN(C(=O)Nc2ccc(F)c(C(F)(F)F)c2)C2CC[C@]3(c4cccc(C#N)c4)CC3C2)CC1 (stereo partly drawn)
Task field, ranking: reported Ki, descending order. State the ranking by listing the labels in the requested order. S, R, Q, P

[a] CC(C)N(CCO)CCN(C(=O)Nc1ccc(F)c(Cl)c1)C1CC[C@]2(c3cccc(C#N)c3)CC2C1 (stereo partly drawn)
[b] N#Cc1cccc([C@]23CCC(N(CCNCCF)C(=O)Nc4cc(Cl)nc(Cl)c4)CC2C3)c1 (stereo partly drawn)
Record comparison, field Ki: mark the lower of a and b . Field: selected label. Fill in the label of the entry you choose. b

---

- targetOrTestSystem: UniProt:Q99705
- methodDescription: Antagonist activity at MCH1 receptor
pKi: −log10 of the molar value.
valueType: pKi

[[record]]
molecule = "COC1CCN(CCN(C(=O)Nc2ccc(F)c(Cl)c2)C2CC[C@]3(c4cccc(C#N)c4)CC3C2)CC1 (stereo partly drawn)"
experimentalresult = 7.82

[[record]]
molecule = "CC(=O)C1CCCN1CCN(C(=O)Nc1ccc(F)c(Cl)c1)C1CC[C@]2(c3cccc(C#N)c3)CC2C1 (stereo partly drawn)"
experimentalresult = 7.64

[[record]]
molecule = "CC(C)N(CCN(C(=O)Nc1cc(Cl)nc(Cl)c1)C1CC[C@]2(c3cccc(C#N)c3)CC2C1)C(C)C (stereo partly drawn)"
experimentalresult = 8.62

[[record]]
molecule = "CS(=O)(=O)N1CCC(CN(C(=O)Nc2ccc(F)c(Cl)c2)C2CC[C@]3(c4cccc(C#N)c4)CC3C2)CC1 (stereo partly drawn)"
experimentalresult = 8.14


[P] CC(C)N(CCO)CCN(C(=O)Nc1cc(Cl)nc(Cl)c1)C1CC[C@]2(c3cccc(C#N)c3)CC2C1 (stereo partly drawn)
[Q] CS(=O)(=O)N1CCC(CN(C(=O)Nc2cccc(F)c2)C2CC[C@]3(c4cccc(C#N)c4)CC3C2)CC1 (stereo partly drawn)
[R] CC(C)N(CCN(C(=O)Nc1ccc(F)c(Cl)c1)C1CC[C@]2(c3cccc(CNS(C)(=O)=O)c3)CC2C1)C(C)C (stereo partly drawn)
[S] CC(C)N(CCN(C(=O)Nc1cccc([N+](=O)[O-])c1)C1CC[C@]2(c3cccc(C#N)c3)CC2C1)C(C)C (stereo partly drawn)
Rank the 4 molecules: largest pKi first, smallest last. Give the labels in the order specified. P, S, Q, R

---

- targetOrTestSystem: Melanin-concentrating hormone receptor 1 (Homo sapiens, UniProt Q99705)
- methodDescription: Antagonist activity at MCH1 receptor
valueType: Ki (µM)

[[record]]
compound = "CS(=O)(=O)N1CCC(CN(C(=O)Nc2cc(Cl)nc(Cl)c2)C2CC[C@]3(c4cccc(CN5CC[C@H](O)C5)c4)CC3C2)CC1 (some centres undefined)"
resultunits = "µM"
experimentalresult = 0.00889

[[record]]
compound = "N#Cc1cccc([C@]23CCC(N(CCN4CC[C@@H](O)C4)C(=O)Nc4ccc(OCOc5ccccc5)c(OCOc5ccccc5)c4)CC2C3)c1 (some centres undefined)"
resultunits = "µM"
experimentalresult = 0.134


[a] CC(C)N(CCN(C(=O)Nc1cccc(Br)c1)C1CC[C@]2(c3cccc(C#N)c3)CC2C1)C(C)C (some centres undefined)
[b] CC(=O)NCc1cccc([C@]23CCC(N(CCN(C(C)C)C(C)C)C(=O)Nc4ccc(F)c(Cl)c4)CC2C3)c1 (some centres undefined)
API: POST /compare with a and b ; response names the item with higher Ki. Output the label that corresponds to your choice. b
(b: 0.031 µM, a: 0.0057 µM)

---

- targetOrTestSystem: Melanin-concentrating hormone receptor 1 (Homo sapiens, UniProt Q99705)
- methodDescription: Antagonist activity at MCH1 receptor
pKi: −log10 of the molar value.
valueType: pKi

[[record]]
compound = "CS(=O)(=O)N1CCC(CN(C(=O)Nc2ccc(F)c(C(F)(F)F)c2)C2CC[C@]3(c4cccc(C#N)c4)CC3C2)CC1 (some centres not stated)"
experimentalresult = 7.58


[1] CO/N=C/c1cccc([C@]23CCC(N(CCN(C(C)C)C(C)C)C(=O)Nc4ccc(F)c(Cl)c4)CC2C3)c1 (some centres not stated)
[2] CC1CC[C@@H](CO)N1CCN(C(=O)Nc1cc(Cl)nc(Cl)c1)C1CC[C@]2(c3cccc(C#N)c3)CC2C1 (some centres not stated)
Which has the smaller recorded pKi, 1 or 2 ? Answer = label. 1
(1: 8.39, 2: 8.92)

[1] N#Cc1cccc([C@]23CCC(N(CCN4CCOCC4)C(=O)Nc4ccc(F)c(Cl)c4)CC2C3)c1 (some centres not stated)
[2] CC(C)N(CCN(C(=O)Nc1cc(Cl)nc(Cl)c1)C1CC[C@]2(c3cccc(C#N)c3)CC2C1)[C@@H](C)CO (some centres not stated)
[3] CC(C)N(CCN(C(=O)Nc1ccc(F)c(Cl)c1)C1CC[C@]2(c3cccc(CO)c3)CC2C1)C(C)C (some centres not stated)
Sort low-to-high on pKi, please. Please list each label once, in the requested order. 3, 1, 2
(3: 7.32, 1: 7.96, 2: 8.80)

---

- targetOrTestSystem: Melanin-concentrating hormone receptor 1 (Homo sapiens)
- methodDescription: Antagonist activity at MCH1 receptor
valueType: Ki (µM)

[[record]]
compound = "N#Cc1cccc(NC(=O)N(CCN2CC[C@@H](O)C2)C2CC[C@]3(c4cccc(C#N)c4)CC3C2)c1 (stereo partly specified)"
experimentalresult = 0.092

[[record]]
compound = "CC1CCC(C2=CCC(N(CCN3CCCC3)C(=O)Nc3ccc(F)c(Cl)c3)CC2)S1 (stereo unspecified)"
experimentalresult = 0.0849

[[record]]
compound = "CN(C)Cc1cccc([C@]23CCC(N(CC4CCN(S(C)(=O)=O)CC4)C(=O)Nc4cc(Cl)nc(Cl)c4)CC2C3)c1 (stereo partly specified)"
experimentalresult = 0.0033

[[record]]
compound = "CS(=O)(=O)N1CCC(CN(C(=O)Nc2ccc(F)c(F)c2)C2CC[C@]3(c4cccc(C#N)c4)CC3C2)CC1 (stereo partly specified)"
experimentalresult = 0.0054

[[record]]
compound = "CC(C)NCCN(C(=O)Nc1cc(Cl)nc(Cl)c1)C1CC[C@]2(c3cccc(C#N)c3)CC2C1 (stereo partly specified)"
experimentalresult = 0.0019

[[record]]
compound = "CC(=O)C1CCC(C2=CCC(N(CCN3CCCC3)C(=O)Nc3ccc(F)c(Cl)c3)CC2)S1 (stereo unspecified)"
experimentalresult = 0.031


[A] N#Cc1cccc([C@]23CCC(N(CCN4CC[C@@H](O)C4)C(=O)Nc4cccc(Cl)c4)CC2C3)c1 (stereo partly specified)
[B] CC1CC[C@@H](CO)N1CCN(C(=O)Nc1ccc(F)c(Cl)c1)C1CC[C@]2(c3cccc(C#N)c3)CC2C1 (stereo partly specified)
API: POST /compare with A and B ; response names the item with higher Ki. Answer by stating the label of the chosen item. A

[A] CCN(CC)Cc1cccc([C@]23CCC(N(CCN(C(C)C)C(C)C)C(=O)Nc4ccc(F)c(Cl)c4)CC2C3)c1 (stereo partly specified)
[B] CC(C)N(CCN(C(=O)Nc1cccc(F)c1)C1CC[C@]2(c3cccc(C#N)c3)CC2C1)C(C)C (stereo partly specified)
[C] CS(=O)(=O)N1CCCC(CN(C(=O)Nc2ccc(F)c(Cl)c2)C2CC[C@]3(c4cccc(C#N)c4)CC3C2)C1 (stereo partly specified)
[D] CC(C)N(CCN(C(=O)Nc1ccc(F)c(Cl)c1)C1CC[C@]2(c3cccc(C#N)c3)CC2C1)[C@@H](C)CO (stereo partly specified)
[E] CN(C)Cc1cccc([C@]23CCC(N(CC4CCN(S(C)(=O)=O)CC4)C(=O)Nc4ccc(F)c(Cl)c4)CC2C3)c1 (stereo partly specified)
Task for the reader: rank each entry by its Ki, from the minimum upward. To answer, arrange all of the labels according to the requested order. B, D, E, A, C
(B: 0.0021 µM, D: 0.0052 µM, E: 0.015 µM, A: 0.046 µM, C: 0.211 µM)

[a] CNC(=O)N1CCC(CN(C(=O)Nc2ccc(F)c(C(F)(F)F)c2)C2CC[C@]3(c4cccc(C#N)c4)CC3C2)CC1 (stereo partly specified)
[b] CC(=O)N1CCC(CN(C(=O)Nc2ccc(F)c(Cl)c2)C2CC[C@]3(c4cccc(C#N)c4)CC3C2)CC1 (stereo partly specified)
[c] N#Cc1cccc([C@]23CCC(N(CCN4CC[C@@H](O)C4)C(=O)Nc4cccc(F)c4)CC2C3)c1 (stereo partly specified)
[d] Cc1ccc(NC(=O)N(CCN2CC[C@@H](O)C2)C2CC[C@]3(c4cccc(C#N)c4)CC3C2)cc1F (stereo partly specified)
Order the entries by their reported Ki, beginning at the minimum. Present the labels in the sequence the task asks for. c, d, a, b
